Just for reference, patent US20180353483A1 is where these values come from.

protocol_details: Pharmacokinetics of Compound 1 in combination with MK-3475 in subjects with various cancers
Format: in vivo, human
measurement_context: human, plasma, oral, 25 mg, Cohort 1, 25 mg BID, steady state C1D8, mean ± SD; read-out: AUC0-12 h (converted)
measured_quantity: AUC(0-t) (µM·h)

# smiles_entry, numeric_readout
measured = [
    ("NS(=O)(=O)NCCNc1nonc1C(=NO)Nc1ccc(F)c(Br)c1", 1.27),
]

###

protocol_details: Dose-escalation study of Compound 1 pharmacokinetics in subjects with advanced malignancies (tablets of Formulations 1 and/or 3, fasted; food effect cohort)
Assay type: in vivo, human
measurement_context: human, plasma, oral, 50 mg, 50 mg BID, steady state, geometric mean; read-out: AUC0-τ
Description: Thus, Cmax, Cmin and Tmax were taken directly from the observed plasma concentration data or imputed in some cases. The terminal-phase disposition rate constant (λz) was estimated using a log-linear regression of the concentration data in the terminal disposition phase, and t1/2 was estimated as ln(2)/λz. AUC0-t and AUC0-τ was estimated using the linear trapezoidal rule for increasing concentrations and the log-trapezoidal rule for decreasing concentrations. […]
measured_quantity: AUC

# smiles_entry, measured_quantity, result
data = [
    ("NS(=O)(=O)NCCNc1nonc1C(=NO)Nc1ccc(F)c(Br)c1", "AUC", "2.83 µM·h"),
]

###

protocol_details: Pharmacokinetics of Compound 1 in combination with MK-3475 in subjects with various cancers
Assay type: in vivo, human
measurement_context: human, plasma, oral, 300 mg, by dose, 300 mg BID, steady state C1D8, geometric mean; read-out: AUC0-12 h (converted)

# compound, readout_unit, AUC(0-t)
records = [
    ("NS(=O)(=O)NCCNc1nonc1C(=NO)Nc1ccc(F)c(Br)c1 [Compound 1]", "µM·h", 11.3),
]

###

protocol_details: Pharmacokinetics of Compound 1 in combination with MK-3475 in subjects with various cancers
Format: in vivo, human
measurement_context: human, plasma, oral, 100 mg BID, Diagnosis NSCLC PD-L1 High, steady state C1D8, mean ± SD

# compound, readout_unit, Cmax
data = [
    ("NS(=O)(=O)NCCNc1nonc1C(=NO)Nc1ccc(F)c(Br)c1 [Compound 1]", "nM", 939),
]

###

protocol_details: Pharmacokinetics of Compound 1 in combination with MK-3475 in subjects with various cancers
Assay type: in vivo, human
measurement_context: human, plasma, oral, 50 mg, Cohort 4 (MEL), 50 mg BID, steady state C1D8, mean ± SD; read-out: AUC0-12 h (converted)
Method: The subjects were not limited to a specific cancers and study include subjects with various cancers. […] One treatment cycle consisted of 21 days. […] The RP2D was selected from the evaluated safety expansions. […] Pharmacokinetic samples were obtained at the visits of Cycle 1 Day 1, Cycle 1 Day 8 and Cycle 2 Day 1. […] The exact date and time of the PK blood draws were recorded in the eCRF along with the date and time of the last dose of study drug and details of the last meal preceding the blood draw. […]

# smiles_entry, AUC(0-t) (µM·h)
measured = [
    ("NS(=O)(=O)NCCNc1nonc1C(=NO)Nc1ccc(F)c(Br)c1", 1.77),
]

###

protocol_details: Pharmacokinetics of Compound 1 in combination with MK-3475 in subjects with various cancers
Assay type: in vivo, human
measurement_context: Cohort 2, 50 mg, first dose, geometric mean
measured_quantity: Cmax (nM)

# compound, numeric_readout
rows = [
    ("NS(=O)(=O)NCCNc1nonc1C(=NO)Nc1ccc(F)c(Br)c1 [Compound 1]", 543),
]

###

protocol_details: Pharmacokinetics of Compound 1 in combination with MK-3475 in subjects with various cancers
Type: in vivo, human
measurement_context: human, plasma, oral, 50 mg, subjects with dose reduction before C4D1, 50 mg BID, C1D8, mean ± SD

# smiles_entry, Cmax
measured = [
    ("NS(=O)(=O)NCCNc1nonc1C(=NO)Nc1ccc(F)c(Br)c1", "557 nM"),
]

###

protocol_details: Pharmacokinetics of Compound 1 in combination with MK-3475 in subjects with various cancers
Type: in vivo, human
measurement_context: human, plasma, oral, 100 mg, Diagnosis GU, first dose, mean ± SD

# compound, readout_unit, Cmax
measured = [
    ("NS(=O)(=O)NCCNc1nonc1C(=NO)Nc1ccc(F)c(Br)c1 [Compound 1]", "nM", 986),
]

###

protocol_details: Pharmacokinetics of Compound 1 in combination with MK-3475 in subjects with various cancers
Assay type: in vivo, human
measurement_context: human, plasma, oral, 300 mg, Cohort 7, 300 mg, first dose, geometric mean; read-out: AUC0-t

# smiles_entry, AUC(0-t), µM·h
rows = [
    ("NS(=O)(=O)NCCNc1nonc1C(=NO)Nc1ccc(F)c(Br)c1", 6.88),
]

###

protocol_details: Pharmacokinetics of Compound 1 in combination with MK-3475 in subjects with various cancers
Format: in vivo, human
measurement_context: human, plasma, oral, 25 mg, by dose, 25 mg BID, steady state C1D8, geometric mean

# smiles_entry, readout_unit, Cmax
data = [
    ("NS(=O)(=O)NCCNc1nonc1C(=NO)Nc1ccc(F)c(Br)c1", "nM", 276),
]

###

protocol_details: Pharmacokinetics of Compound 1 in combination with MK-3475 in subjects with various cancers
Assay type: in vivo, human
measurement_context: human, plasma, oral, 100 mg, Diagnosis OC, first dose, geometric mean; read-out: AUC0-t
measured_quantity: AUC(0-t)

# molecule, result
measured = [
    ("NS(=O)(=O)NCCNc1nonc1C(=NO)Nc1ccc(F)c(Br)c1 [Compound 1]", "2.99 µM·h"),
]

###

protocol_details: Dose-escalation study of Compound 1 pharmacokinetics in subjects with advanced malignancies (tablets of Formulations 1 and/or 3, fasted; food effect cohort)
Format: in vivo, human
measurement_context: human, plasma, oral, 600 mg, 600 mg BID, Fed (high-fat meal), median; read-out: Tmax

# smiles_entry, readout_unit, tmax
records = [
    ("NS(=O)(=O)NCCNc1nonc1C(=NO)Nc1ccc(F)c(Br)c1", "h", 6),
]

###

protocol_details: Pharmacokinetics of Compound 1 in combination with MK-3475 in subjects with various cancers
Format: in vivo, human
measurement_context: human, plasma, oral, 50 mg, by dose, 50 mg, first dose, geometric mean; read-out: AUC0-t
measured_quantity: AUC(0-t) (µM·h)

# compound, measured_quantity, numeric_readout
rows = [
    ("NS(=O)(=O)NCCNc1nonc1C(=NO)Nc1ccc(F)c(Br)c1 [Compound 1]", "AUC(0-t)", 1.33),
]

###

protocol_details: Dose-escalation study of Compound 1 pharmacokinetics in subjects with advanced malignancies (tablets of Formulations 1 and/or 3, fasted; food effect cohort)
Type: in vivo, human
measurement_context: human, plasma, oral, 600 mg, 600 mg BID, steady state, geometric mean
measured_quantity: Cmax (µM)

# smiles_entry, numeric_readout
data = [
    ("NS(=O)(=O)NCCNc1nonc1C(=NO)Nc1ccc(F)c(Br)c1", 4.52),
]

###

protocol_details: Pharmacokinetics of Compound 1 in combination with MK-3475 in subjects with various cancers
Format: in vivo, human
measurement_context: Cohort 3, 100 mg BID, steady state C1D8, geometric mean

# smiles_entry, Cmax (µM)
data = [
    ("NS(=O)(=O)NCCNc1nonc1C(=NO)Nc1ccc(F)c(Br)c1", 0.814),
]

###

protocol_details: Pharmacokinetics of Compound 1 in combination with MK-3475 in subjects with various cancers
Format: in vivo, human
measurement_context: human, plasma, oral, 50 mg, Cohort 4 (MEL), 50 mg BID, steady state C1D8, mean ± SD

# smiles_entry, Cmax [nM]
measured = [
    ("NS(=O)(=O)NCCNc1nonc1C(=NO)Nc1ccc(F)c(Br)c1", 442),
]

###

protocol_details: Pharmacokinetics of Compound 1 in combination with MK-3475 in subjects with various cancers
Assay type: in vivo, human
measurement_context: human, plasma, oral, 100 mg, All diagnoses, first dose, mean ± SD

# smiles_entry, Cmax [nM]
data = [
    ("NS(=O)(=O)NCCNc1nonc1C(=NO)Nc1ccc(F)c(Br)c1", 937),
]

###

protocol_details: Pharmacokinetics of Compound 1 in combination with MK-3475 in subjects with various cancers
Type: in vivo, human
measurement_context: by dose, 50 mg BID, steady state C1D8, geometric mean

# smiles_entry, Cmax [nM]
rows = [
    ("NS(=O)(=O)NCCNc1nonc1C(=NO)Nc1ccc(F)c(Br)c1", 452),
]

###

protocol_details: Pharmacokinetics of Compound 1 in combination with MK-3475 in subjects with various cancers
Type: in vivo, human
measurement_context: human, plasma, oral, 100 mg, Diagnosis TNBC, first dose, geometric mean; read-out: AUC0-t

# smiles_entry, AUC(0-t), µM·h
measured = [
    ("NS(=O)(=O)NCCNc1nonc1C(=NO)Nc1ccc(F)c(Br)c1", 2.82),
]

###

protocol_details: Dose-escalation study of Compound 1 pharmacokinetics in subjects with advanced malignancies (tablets of Formulations 1 and/or 3, fasted; food effect cohort)
Format: in vivo, human
measurement_context: human, plasma, oral, 400 mg, 400 mg BID, steady state, mean ± SD; read-out: AUC0-t
Text: Thus, Cmax, Cmin and Tmax were taken directly from the observed plasma concentration data or imputed in some cases. The terminal-phase disposition rate constant (λz) was estimated using a log-linear regression of the concentration data in the terminal disposition phase, and t1/2 was estimated as ln(2)/λz. AUC0-t and AUC0-τ was estimated using the linear trapezoidal rule for increasing concentrations and the log-trapezoidal rule for decreasing concentrations. […]
measured_quantity: AUC(0-t) (µM·h)

# smiles_entry, numeric_readout
records = [
    ("NS(=O)(=O)NCCNc1nonc1C(=NO)Nc1ccc(F)c(Br)c1", 16.7),
]
